# target-entity: Hexokinase-4 (Homo sapiens)
# Sequence (P35557 whole entry): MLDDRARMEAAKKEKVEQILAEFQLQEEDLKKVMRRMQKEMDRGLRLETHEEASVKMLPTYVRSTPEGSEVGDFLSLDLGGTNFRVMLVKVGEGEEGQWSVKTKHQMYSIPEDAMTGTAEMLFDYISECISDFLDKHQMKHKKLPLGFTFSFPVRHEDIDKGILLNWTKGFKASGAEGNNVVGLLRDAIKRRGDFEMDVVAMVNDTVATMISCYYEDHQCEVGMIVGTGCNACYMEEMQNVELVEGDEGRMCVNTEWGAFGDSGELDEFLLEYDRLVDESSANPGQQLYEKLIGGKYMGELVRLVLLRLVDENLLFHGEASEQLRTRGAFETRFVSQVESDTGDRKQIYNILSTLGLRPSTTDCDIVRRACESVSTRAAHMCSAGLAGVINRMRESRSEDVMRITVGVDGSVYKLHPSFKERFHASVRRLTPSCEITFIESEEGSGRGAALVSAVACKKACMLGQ
pEC50: −log10 of the molar value.
I would appreciate it if you labelled entries t when pEC50 is 7 or higher, otherwise f.

> print(dat)
                                smiles.repr  assigned.label
1  Cn1ccc(NC(=O)c2cc(Oc3ccc(C(=O)N4CCC4)c(F)c3)c3c(c2)OC(C)(C)C3)n1               t
2  Cc1cnc(NC(=O)c2cc(Oc3ccc(C#N)cc3)c3cc(C)oc3c2)cn1               f
3  Cc1cc2c(Oc3cnc(C(=O)N(C)C)cn3)cc(C(=O)Nc3cnccn3)cc2o1               f
4  Cc1cnc(NC(=O)c2cc(Oc3ccc(S(C)(=O)=O)cc3)c3cc(C)oc3c2)cn1               f

Could you now look at the following molecule, please?
Ask: Given "Cc1ccc(NC(=O)c2cc(Oc3cnc(C(=O)N(C)C)cn3)c3cc(C)oc3c2)nc1" , state whether its pEC50 is at least 7.
Reply: f

Numbers sourced from ChEMBL document CHEMBL3217627.
